Sourced from patent US7351861B2

Kindly supply the reported Inhibition (%) of the luciferase light signal values for the records listed here.
# System: luciferase light signal from pIB102EL (yopE-luxAB, wild-type)
# assayExplanation: microbe, parasite or virus in culture
# Format: cell-based, Yersinia pseudotuberculosis
# condition: 50 μM; strain pIB102EL; Table 2C
Answer format: numeric, % implied, no suffix.

[Q] Suppose we examine the molecule O=C(N/N=C/c1cc(I)cc(I)c1O)c1ccc([N+](=O)[O-])cc1 [Compound 41] ; what Inhibition (%) of the luciferase light signal value has been reported?
[A] 48

[Q] Suppose we examine the molecule CC(=NNC(=O)c1cccnc1)c1cc(Br)cc(Br)c1O [Compound 39] ; what Inhibition (%) of the luciferase light signal value has been reported?
[A] 13

[Q] Suppose we examine the molecule Nc1ccc(C(=O)N/N=C/c2c(O)ccc3ccccc23)cc1 [Compound 44] ; what Inhibition (%) of the luciferase light signal value has been reported?
[A] 23

[Q] Suppose we examine the molecule O=C(N/N=C/c1ccc(O)cc1O)c1ccc([N+](=O)[O-])cc1 [Compound 38] ; what Inhibition (%) of the luciferase light signal value has been reported?
[A] 23

[Q] Suppose we examine the molecule CCOc1cccc(/C=N/NC(=O)c2ccc(Cl)cc2)c1O [Compound 43] ; what Inhibition (%) of the luciferase light signal value has been reported?
[A] 22

###

Kindly supply the reported Inhibition (%) of the luciferase light signal values for the records listed here.
# System: luciferase light signal from pIB102EL (yopE-luxAB, wild-type)
# assayExplanation: microbe, parasite or virus in culture
# Type: cell-based, Yersinia pseudotuberculosis
# condition: 50 μM; strain pIB102EL; Table 2C
Answer format: numeric, % implied, no suffix.

[Q] Look up Inhibition (%) of the luciferase light signal with luciferase light signal from pIB102EL (yopE-luxAB, wild-type) for this compound: Nc1ccc(C(=O)N/N=C/c2cc(I)cc(I)c2O)cc1 [Compound 40]
[A] 41

[Q] Look up Inhibition (%) of the luciferase light signal with luciferase light signal from pIB102EL (yopE-luxAB, wild-type) for this compound: O=C(N/N=C/c1cc(Cl)cc(Cl)c1O)c1ccccc1 [Compound 35]
[A] 21

[Q] Look up Inhibition (%) of the luciferase light signal with luciferase light signal from pIB102EL (yopE-luxAB, wild-type) for this compound: O=C(N/N=C/c1ccc(O)c(O)c1O)c1ccccc1 [Compound 36]
[A] 24

[Q] Look up Inhibition (%) of the luciferase light signal with luciferase light signal from pIB102EL (yopE-luxAB, wild-type) for this compound: O=C(N/N=C/c1cc(Br)ccc1O)c1cccnc1 [Compound 42]
[A] 49

###

# System: luciferase light signal from pIB29EL (yopE-luxAB)
# assayExplanation: microbe, parasite or virus in culture
# Format: cell-based, Yersinia pseudotuberculosis
# condition: 10 μM; pIB29EL; Table 2A
Returns: string. Value is Yes if measured Inhibition (%) of the luciferase light signal is below 30%, and No if it is greater than or equal to it.

[Q] Regarding O=C(N/N=C/c1cc(Br)cc(Br)c1O)c1ccc([N+](=O)[O-])cc1 [Compound 3] , kindly confirm whether its Inhibition (%) of the luciferase light signal is beneath 30%.
[A] Yes

[Q] Regarding CC(=O)Oc1c(Br)cc(Br)cc1C(=O)Nc1ccccc1F [Compound 19] , kindly confirm whether its Inhibition (%) of the luciferase light signal is beneath 30%.
[A] Yes

[Q] Regarding CC(=O)Oc1c(I)cc(I)cc1C(=O)Nc1ccccc1 [Compound 18] , kindly confirm whether its Inhibition (%) of the luciferase light signal is beneath 30%.
[A] Yes

[Q] Regarding CC(=O)Oc1c(I)cc(I)cc1C(=O)Nc1ccc(F)cc1 [Compound 17] , kindly confirm whether its Inhibition (%) of the luciferase light signal is beneath 30%.
[A] No

[Q] Regarding O=C(N/N=C/c1cc(O)ccc1O)c1ccco1 [Compound 12] , kindly confirm whether its Inhibition (%) of the luciferase light signal is beneath 30%.
[A] Yes

[Q] Regarding O=C(N/N=C/c1cc(Br)cc(Br)c1O)c1cccnc1 [Compound 7] , kindly confirm whether its Inhibition (%) of the luciferase light signal is beneath 30%.
[A] Yes

[Q] Regarding O=C(N/N=C/c1ccc(O)cc1O)c1cc2ccccc2cc1O [Compound 13] , kindly confirm whether its Inhibition (%) of the luciferase light signal is beneath 30%.
[A] Yes

[Q] Regarding O=C(Nc1ccc(Cl)c(Cl)c1)c1cc(Cl)ccc1NS(=O)(=O)c1cccc2nsnc12 [Compound 5] , kindly confirm whether its Inhibition (%) of the luciferase light signal is beneath 30%.
[A] No

[Q] Regarding O=C(N/N=C/c1c(O)ccc2ccccc12)c1ccccc1 [Compound 9] , kindly confirm whether its Inhibition (%) of the luciferase light signal is beneath 30%.
[A] Yes
